system under test: MAO A (Rattus norvegicus, UniProt P21396)
Sequence (P21396 1-526): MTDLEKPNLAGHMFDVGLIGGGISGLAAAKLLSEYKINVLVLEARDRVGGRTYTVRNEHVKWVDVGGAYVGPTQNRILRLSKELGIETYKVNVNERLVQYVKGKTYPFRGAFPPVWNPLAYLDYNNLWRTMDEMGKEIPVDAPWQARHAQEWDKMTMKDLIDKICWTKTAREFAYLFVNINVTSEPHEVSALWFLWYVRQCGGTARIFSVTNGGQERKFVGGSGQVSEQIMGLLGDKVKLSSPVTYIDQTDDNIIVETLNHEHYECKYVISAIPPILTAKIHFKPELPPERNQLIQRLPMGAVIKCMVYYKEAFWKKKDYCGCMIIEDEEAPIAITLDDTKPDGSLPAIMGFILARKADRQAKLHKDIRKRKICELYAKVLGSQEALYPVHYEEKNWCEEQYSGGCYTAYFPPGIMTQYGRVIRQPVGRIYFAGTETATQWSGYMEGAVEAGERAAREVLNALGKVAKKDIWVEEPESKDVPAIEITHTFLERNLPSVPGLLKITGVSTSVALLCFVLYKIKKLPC
pIC50: −log10 of the molar value.
result type: pIC50

Requested field: pIC50. Item: Cc1c(C)c2ccc(OCc3csc(C4CC4)n3)cc2oc1=O
~5.00

---
What value of pIC50 has been reported for the following compound? CCc1nnc(COc2ccc3c(C)c(C)c(=O)oc3c2)o1
~5.00

For Cc1c(C)c2ccc(OCc3cc(C4CC4)no3)cc2oc1=O then?
< 5.00

What do we get for Cc1c(C)c2ccc(OCc3cc(C4CCCCC4)no3)cc2oc1=O ?
< 5.00

# repeat for Cc1nnc(COc2ccc3c4c(c(=O)oc3c2)CCCC4)s1
< 5.00
